// provenance: ChEMBL document CHEMBL1157539

# Tested on: Plasmodium falciparum
# assay: GSK_TCMDC: Inhibition of Plasmodium falciparum Dd2 in whole red blood cells, using parasite LDH activity as an index of growth. Test compounds present at 2uM
# Format: functional
# Inhibition listing for each entry below
Quick reminder: number only, in %, skip the unit.

| compound | target.or.test.system | Inhibition / % |
| --- | --- | --- |
| COc1cc2nc(NCCCN3CCCCC3)nc(NCc3ccccc3)c2cc1OC | Plasmodium falciparum | 3 |
| COc1ccc(Cn2c(Nc3cccc(C(F)(F)F)c3)nc3ccc(C(=O)NCCN4CCCC4)cc32)cc1Cl | Plasmodium falciparum | 6 |
| CCCCOc1ccc(/C=C/c2ccc(-c3c(C)[nH]c(C)c(Cl)c3=O)s2)cc1 | Plasmodium falciparum | 96 |
| CN(CC1CCC(NC(=O)/C=C/c2ccc(Cl)c(Cl)c2)CC1)C1CCC(c2c[nH]c3ccccc23)CC1 (centres undefined) | Plasmodium falciparum | 53 |
| Nc1nc(N)c2c(ccc3c2ccn3Cc2ccccc2)n1 | Plasmodium falciparum | 94 |

Exam item: Tell me its Inhibition on Plasmodium falciparum: O=C(Nc1cc2cc(-c3ccc(CN4CCCCC4)cc3)ccc2n2cnnc12)NC1CCCC1
Marked response: 98

Exam item: Tell me its Inhibition on Plasmodium falciparum: O=C(CSc1nn(-c2ccccc2)c(=S)s1)c1c[nH]c2ccccc12
Marked response: 68

Exam item: Tell me its Inhibition on Plasmodium falciparum: CCOC(=O)C1=C(C)N=c2sc(=Cc3cc(Cl)ccc3O)c(=O)n2C1c1ccc(OC)cc1 (centres undefined)
Marked response: 65

Exam item: Tell me its Inhibition on Plasmodium falciparum: COc1cccc2c(NN=Cc3ccccc3F)ccnc12
Marked response: 37

Exam item: Tell me its Inhibition on Plasmodium falciparum: Cc1cc(C=C(P(=O)(OC(C)C)OC(C)C)P(=O)(OC(C)C)OC(C)C)c2ccccc2c1O
Marked response: 54

Exam item: Tell me its Inhibition on Plasmodium falciparum: CCNc1cc(C(=O)N[C@@H](Cc2ccccc2)[C@H](O)CNC2CCC(C)(C)CC2)cc(N2CCCCS2(=O)=O)c1.Cl
Marked response: 71

Exam item: Tell me its Inhibition on Plasmodium falciparum: O=C(Nc1ccccc1F)NC1CCN(c2ccnc(Nc3ccc(F)cc3)n2)CC1
Marked response: 63

Exam item: Tell me its Inhibition on Plasmodium falciparum: Cl.O=C(C=Cc1cccc(F)c1)NC1CCC(CCN2CCc3ccc(-c4cnccn4)cc3CC2)CC1 (centres undefined)
Marked response: 67

Exam item: Tell me its Inhibition on Plasmodium falciparum: O=C(NCCN1CCCC1)c1cccc(-c2ccc(-c3nc4cc(C(F)(F)F)ccc4[nH]3)cc2)c1
Marked response: 99
